Molecular target: Mitogen-activated protein kinase 3 (Homo sapiens)
Sequence (P27361 whole entry): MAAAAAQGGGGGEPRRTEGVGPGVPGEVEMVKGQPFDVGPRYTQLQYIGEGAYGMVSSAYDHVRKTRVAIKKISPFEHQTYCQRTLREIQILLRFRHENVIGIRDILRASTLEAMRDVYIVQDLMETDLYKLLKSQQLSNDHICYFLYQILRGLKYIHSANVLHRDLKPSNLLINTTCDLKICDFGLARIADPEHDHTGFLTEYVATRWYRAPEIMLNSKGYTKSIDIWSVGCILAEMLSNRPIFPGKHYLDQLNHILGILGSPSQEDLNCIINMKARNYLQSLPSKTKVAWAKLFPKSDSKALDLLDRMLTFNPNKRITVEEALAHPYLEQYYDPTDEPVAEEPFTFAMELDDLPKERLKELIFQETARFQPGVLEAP
Test: DRUGMATRIX: Protein Serine/Threonine Kinase, ERK1 enzyme inhibition (substrate: Myelin Basic Protein)
Design: species or system Escherichia coli
Details: Not Active = under 50% inhibition at 10 µM
test readout: IC50

CCOC(=O)[C@H](CCc1ccccc1)N[C@@H](C)C(=O)N1Cc2ccccc2C[C@H]1C(=O)O ... Not Active
CC(=O)O[C@]1(C(C)=O)CC[C@H]2[C@@H]3C=C(Cl)C4=CC(=O)[C@@H]5C[C@@H]5[C@]4(C)[C@H]3CC[C@@]21C [CYPROTERONE ACETATE] ... Not Active
Cc1c(F)c(N2CCNC(C)C2)cc2c1c(=O)c(C(=O)O)cn2C1CC1 (centres undefined) ... Not Active
C#C[C@]1(O)CC[C@H]2[C@@H]3CCc4cc(O)ccc4[C@H]3CC[C@@]21C ... Not Active
